# ASSAY: AUC (0 to 24 hrs) in Staphylococcus aureus in in vitro pharmacokinetic/pharmacodynamic model at 10 mg/kg every 24 hrs
# Assay type: ADME, organism-based
# Design: time < 24 hr, dose 10 mg/kg
OBSERVED_PROPERTY: AUC at 24 h (µg·h/mL)
Entry rule: numbers only, all in µg·h/mL.

Give the measured AUC at 24 h of CCCCCCCCCC(=O)N[C@@H](Cc1c[nH]c2ccccc12)C(=O)N[C@H](CC(N)=O)C(=O)N[C@@H](CC(=O)O)C(=O)N[C@@H]1C(=O)NCC(=O)N[C@@H](CCCN)C(=O)N[C@@H](CC(=O)O)C(=O)N[C@H](C)C(=O)N[C@@H](CC(=O)O)C(=O)NCC(=O)N[C@H](CO)C(=O)N[C@@H]([C@H](C)CC(=O)O)C(=O)N[C@@H](CC(=O)c2ccccc2N)C(=O)O[C@@H]1C .
200

###

# ASSAY: AUC (0 to 24 hrs) in Staphylococcus aureus in in vitro pharmacokinetic/pharmacodynamic model at 600 mg every 24 hrs
# Format: ADME, organism-based
# Parameters: dose 600 mg, time < 24 hr
OBSERVED_PROPERTY: AUC at 24 h (ng·h/mL)
Entry rule: numbers only, all in ng·h/mL.

Give the measured AUC at 24 h of CO[C@H]1/C=C/O[C@@]2(C)Oc3c(C)c(O)c4c(O)c(c(/C=N/N5CCN(C)CC5)c(O)c4c3C2=O)NC(=O)/C(C)=C\C=C\[C@H](C)[C@H](O)[C@@H](C)[C@@H](O)[C@@H](C)[C@H](OC(C)=O)[C@@H]1C .
19600

###

# ASSAY: AUC (0 to 24 hrs) in Staphylococcus aureus in in vitro pharmacokinetic/pharmacodynamic model
# Format: ADME, organism-based
# Design: time < 24 hr
OBSERVED_PROPERTY: AUC(0-t) at 24 h (µg·h/mL)
Entry rule: numbers only, all in µg·h/mL.

Give the measured AUC(0-t) at 24 h of CN[C@H](CC(C)C)C(=O)N[C@H]1C(=O)N[C@@H](CC(N)=O)C(=O)N[C@H]2C(=O)N[C@H]3C(=O)N[C@H](C(=O)N[C@H](C(=O)O)c4cc(O)cc(O)c4-c4cc3ccc4O)[C@H](O)c3ccc(c(Cl)c3)Oc3cc2cc(c3O[C@@H]2O[C@H](CO)[C@@H](O)[C@H](O)[C@H]2O[C@H]2C[C@](C)(N)[C@H](O)[C@H](C)O2)Oc2ccc(cc2Cl)[C@H]1O .
193

###

# ASSAY: AUC (0 to 24 hrs) in Staphylococcus aureus in in vitro pharmacokinetic/pharmacodynamic model at 400 mg every 24 hrs
# Type: ADME, organism-based
# Set-up: time < 24 hr, dose 400 mg
OBSERVED_PROPERTY: AUC at 24 h
Your answer should be a number followed by the unit of measure.

Give the measured AUC at 24 h of COc1c(N2C[C@@H]3CCCN[C@@H]3C2)c(F)cc2c(=O)c(C(=O)O)cn(C3CC3)c12 [MOXIFLOXACIN] .
44200 ng·h/mL

###

# ASSAY: AUC (0 to 24 hrs) in Staphylococcus aureus in in vitro pharmacokinetic/pharmacodynamic model at 250 mg every 12 hrs
# Type: ADME, organism-based
# Set-up: dose 250 mg, time < 24 hr
OBSERVED_PROPERTY: AUC at 24 h (ng·h/mL)
Entry rule: numbers only, all in ng·h/mL.

Give the measured AUC at 24 h of CC[C@H]1OC(=O)[C@H](C)[C@@H](O[C@H]2C[C@@](C)(OC)[C@@H](O)[C@H](C)O2)[C@H](C)[C@@H](O[C@@H]2O[C@H](C)C[C@H](N(C)C)[C@H]2O)[C@](C)(OC)C[C@@H](C)C(=O)[C@H](C)[C@@H](O)[C@]1(C)O .
6530

Origin of values: ChEMBL document CHEMBL1671745
